assayRemarks: Metabolic stability in human liver microsomes assessed as compound remaining at 1 uM measured at 15 mins by LC-MS/MS analysis relative to control
Type: ADME, Microsome
testConditions: read-out: Stability
testReadout: remaining at 0.25 h, 1 µM (%)

1. C#Cc1ccc2c(c1)C(c1ccccc1)=NCc1c(C(=O)OCC)ncn1-2 :: 41.4
2. C#Cc1ccc2c(c1)C(c1ccccn1)=NCc1c(C(=O)OCC)ncn1-2 :: 106
3. C#Cc1ccc2c(c1)C(c1ccccn1)=NCc1c(-c3nc(C(C)C)no3)ncn1-2 :: 97.8
4. C#Cc1ccc2c(c1)C(c1ccccc1)=NCc1c(C(=O)O)ncn1-2 :: 108
5. C#Cc1ccc2c(c1)C(c1ccccc1)=NCc1c(-c3nc(C(C)C)no3)ncn1-2 :: 100
6. C#Cc1ccc2c(c1)C(c1ccccc1F)=NCc1c(C(=O)NC)ncn1-2 :: 97.3
7. C#Cc1ccc2c(c1)C(c1ccccc1)=NCc1c(C(=O)NC)ncn1-2 :: 87.3
8. C#Cc1ccc2c(c1)C(c1ccccc1F)=NCc1c(C(=O)OCC)ncn1-2 :: 13.5
9. C#Cc1ccc2c(c1)C(c1ccccn1)=NCc1c(C(=O)NC)ncn1-2 :: 109
10. C#Cc1ccc2c(c1)C(c1ccccn1)=NCc1c(C(=O)O)ncn1-2 :: 102

----------
List of remaining at 1 h, 10 µM values.
assayRemarks: Metabolic stability in heat inactivated human liver microsomes assessed as compound remaining at 10 uM measured at 60 mins by LC-MS/MS analysis relative to control
Format: ADME, Microsome
testConditions: read-out: Stability
testReadout: remaining at 1 h, 10 µM (%)

1. C#Cc1ccc2c(c1)C(c1ccccc1)=NCc1c(-c3nc(C(C)C)no3)ncn1-2 :: 119
2. C#Cc1ccc2c(c1)C(c1ccccc1F)=NCc1c(C(=O)NC)ncn1-2 :: 108
3. C#Cc1ccc2c(c1)C(c1ccccn1)=NCc1c(C(=O)OCC)ncn1-2 :: 95.4
4. C#Cc1ccc2c(c1)C(c1ccccc1)=NCc1c(C(=O)O)ncn1-2 :: 97.2
5. C#Cc1ccc2c(c1)C(c1ccccn1)=NCc1c(-c3nc(C(C)C)no3)ncn1-2 :: 91.7
6. C#Cc1ccc2c(c1)C(c1ccccn1)=NCc1c(C(=O)NC)ncn1-2 :: 110
7. C#Cc1ccc2c(c1)C(c1ccccc1)=NCc1c(C(=O)OCC)ncn1-2 :: 102
8. C#Cc1ccc2c(c1)C(c1ccccc1)=NCc1c(C(=O)NC)ncn1-2 :: 114
9. C#Cc1ccc2c(c1)C(c1ccccc1F)=NCc1c(C(=O)OCC)ncn1-2 :: 110
10. C#Cc1ccc2c(c1)C(c1ccccn1)=NCc1c(C(=O)O)ncn1-2 :: 88.3

----------
assayRemarks: Metabolic stability in human liver microsomes assessed as compound remaining at 10 uM measured at 30 mins by LC-MS/MS analysis relative to control
Assay type: ADME, Microsome
testConditions: read-out: Stability
testReadout: remaining at 0.5 h, 10 µM (%)

1) C#Cc1ccc2c(c1)C(c1ccccn1)=NCc1c(C(=O)OCC)ncn1-2 :: 90.4
2) C#Cc1ccc2c(c1)C(c1ccccc1)=NCc1c(-c3nc(C(C)C)no3)ncn1-2 :: 108
3) C#Cc1ccc2c(c1)C(c1ccccc1)=NCc1c(C(=O)O)ncn1-2 :: 94.8
4) C#Cc1ccc2c(c1)C(c1ccccc1F)=NCc1c(C(=O)NC)ncn1-2 :: 103
5) C#Cc1ccc2c(c1)C(c1ccccn1)=NCc1c(C(=O)O)ncn1-2 :: 86.1
6) C#Cc1ccc2c(c1)C(c1ccccc1F)=NCc1c(C(=O)OCC)ncn1-2 :: 3.6
7) C#Cc1ccc2c(c1)C(c1ccccn1)=NCc1c(-c3nc(C(C)C)no3)ncn1-2 :: 99.3
8) C#Cc1ccc2c(c1)C(c1ccccn1)=NCc1c(C(=O)NC)ncn1-2 :: 106
9) C#Cc1ccc2c(c1)C(c1ccccc1)=NCc1c(C(=O)OCC)ncn1-2 :: 13.9
10) C#Cc1ccc2c(c1)C(c1ccccc1)=NCc1c(C(=O)NC)ncn1-2 :: 104
